tested on: KP-2 (Pancreatic Carcinoma); assay: Bliss excess, mean over the matrix (fraction); higher = more synergy
For each entry below, report its Bliss excess value.
# answer = number (no unit)

Entry Cc1nc(Nc2ncc(C(=O)Nc3c(C)cccc3Cl)s2)cc(N2CCN(CCO)CC2)n1 [Dasatinib] + CC(=O)Nc1cccc(-n2c(=O)n(C3CC3)c(=O)c3c(Nc4ccc(I)cc4F)n(C)c(=O)c(C)c32)c1 [Trametinib] (first compound max 2 µM, 7x7, partner max 1 µM) , KP-2 (Pancreatic Carcinoma) data, Bliss excess value: 0.136

Entry CC1(C)CCC(CN2CCN(c3ccc(C(=O)NS(=O)(=O)c4ccc(NCC5CCOCC5)c([N+](=O)[O-])c4)c(Oc4cnc5[nH]ccc5c4)c3)CC2)=C(c2ccc(Cl)cc2)C1 [Venetoclax] + CN(C)CCCOc1ccc(-c2ccc3ncc4c(c3c2)n(C2CCOCC2)c(=O)n4C)cn1 [AZD0156] (first compound max 1 µM, 7x7, partner max 1 µM) , KP-2 (Pancreatic Carcinoma) data, Bliss excess value: -0.0193

Entry C=CCn1c(=O)c2cnc(Nc3ccc(N4CCN(C)CC4)cc3)nc2n1-c1cccc(C(C)(C)O)n1 [AZD1775] + C1CN(CCC1(C(=O)N[C@@H](CCO)C2=CC=C(C=C2)Cl)N)C3=NC=NC4=C3C=CN4 [Capivasertib] (first compound max 3 µM, partner max 3 µM) , KP-2 (Pancreatic Carcinoma) data, Bliss excess value: -0.0475

###

For each entry below, report its combination Emax value.
tested on: PF-382 (T-Lymphoblastic Leukemia); test: combination Emax (second highest fraction inhibited in the dose matrix, 72 h); higher = more inhibition; extreme values may be limits of the assay
# answer = number (no unit)

The recorded combination Emax for entry Cc1nc(Nc2ncc(C(=O)Nc3c(C)cccc3Cl)s2)cc(N2CCN(CCO)CC2)n1 [Dasatinib] + CC(=O)Nc1cccc(-n2c(=O)n(C3CC3)c(=O)c3c(Nc4ccc(I)cc4F)n(C)c(=O)c(C)c32)c1 [Trametinib] (first compound max 2 µM, 7x7, partner max 1 µM) equals 0.991

The recorded combination Emax for entry Cc1cc2ncnn2cc1Nc1ncc2c(n1)n(C1CCOCC1)c(=O)n2C [AZD7648] + C=CCn1c(=O)c2cnc(Nc3ccc(N4CCN(C)CC4)cc3)nc2n1-c1cccc(C(C)(C)O)n1 [AZD1775] (first compound max 10 µM, partner max 1 µM) equals 0.957

The recorded combination Emax for entry CN(C)CCCOc1ccc(-c2ccc3ncc4c(c3c2)n(C2CCOCC2)c(=O)n4C)cn1 [AZD0156] + C=CCn1c(=O)c2cnc(Nc3ccc(N4CCN(C)CC4)cc3)nc2n1-c1cccc(C(C)(C)O)n1 [AZD1775] (first compound max 1 µM, partner max 1 µM) equals 0.954

The recorded combination Emax for entry CN(CCO)CC[C@H](CSc1ccccc1)Nc1ccc(S(=O)(=O)NC(=O)c2ccc(N3CCC([C@@H](O)c4ccccc4-c4ccc(Cl)cc4)CC3)cc2)cc1S(=O)(=O)C(F)(F)F [AZD4320] + Cc1cc2ncnn2cc1Nc1ncc2c(n1)n(C1CCOCC1)c(=O)n2C [AZD7648] (first compound max 1 µM, 7x7, partner max 10 µM) equals 0.983

The recorded combination Emax for entry CCN(CCO)CCCOc1ccc2c(Nc3cc(CC(=O)Nc4cccc(F)c4)[nH]n3)ncnc2c1 [AZD2811] + O=C(c1cc(Cc2n[nH]c(=O)c3ccccc23)ccc1F)N1CCN(C(=O)C2CC2)CC1 [Olaparib] (first compound max 1 µM, 7x7, partner max 10 µM) equals 0.893

The recorded combination Emax for entry COc1cccc(OCCCN)c1-c1cc(Nc2cnc(C#N)cn2)n[nH]1 [Prexasertib] + CN(C)CCCOc1ccc(-c2ccc3ncc4c(c3c2)n(C2CCOCC2)c(=O)n4C)cn1 [AZD0156] (first compound max 1 µM, 7x7, partner max 1 µM) equals 0.9

The recorded combination Emax for entry COc1nnc2ccc(N3CCC(c4ccc(OCCN5CCN(C)C(=O)[C@H]5C)cc4)CC3)nn12 [AZD5153] + CN(CC[C@H](CSC1=CC=CC=C1)NC2=C(C=C(C=C2)S(=O)(=O)NC(=O)C3=CC=C(C=C3)N4CCC(CC4)[C@H](C5=CC=CC=C5C6=CC=C(C=C6)Cl)O)S(=O)(=O)C(F)(F)F)CCO [AZD4320] (first compound max 1 µM, 7x7, partner max 1 µM) equals 1

The recorded combination Emax for entry CN(CCO)CC[C@H](CSc1ccccc1)Nc1ccc(S(=O)(=O)NC(=O)c2ccc(N3CCC([C@@H](O)c4ccccc4-c4ccc(Cl)cc4)CC3)cc2)cc1S(=O)(=O)C(F)(F)F [AZD4320] + C1CN(CCC1(C(=O)N[C@@H](CCO)C2=CC=C(C=C2)Cl)N)C3=NC=NC4=C3C=CN4 [Capivasertib] (first compound max 1 µM, 7x7, partner max 3 µM) equals 0.98

The recorded combination Emax for entry NC1(C(=O)N[C@@H](CCO)c2ccc(Cl)cc2)CCN(c2ncnc3[nH]ccc23)CC1 [Capivasertib] + CCN(CCO)CCCOc1ccc2c(Nc3cc(CC(=O)Nc4cccc(F)c4)[nH]n3)ncnc2c1 [AZD2811] (first compound max 10 µM, 7x7, partner max 1 µM) equals 0.916

The recorded combination Emax for entry COc1nnc2ccc(N3CCC(c4ccc(OCCN5CCN(C)C(=O)[C@H]5C)cc4)CC3)nn12 [AZD5153] + CC1(C)CCC(CN2CCN(c3ccc(C(=O)NS(=O)(=O)c4ccc(NCC5CCOCC5)c([N+](=O)[O-])c4)c(Oc4cnc5[nH]ccc5c4)c3)CC2)=C(c2ccc(Cl)cc2)C1 [Venetoclax] (first compound max 1 µM, 7x7, partner max 1 µM) equals 0.871

The recorded combination Emax for entry Cn1cnc2c(F)c(Nc3ccc(Br)cc3Cl)c(C(=O)NOCCO)cc21 [Selumetinib] + C=CCn1c(=O)c2cnc(Nc3ccc(N4CCN(C)CC4)cc3)nc2n1-c1cccc(C(C)(C)O)n1 [AZD1775] (first compound max 10 µM, partner max 1 µM) equals 0.974

The recorded combination Emax for entry COc1cccc2c1C(=O)c1c(O)c3c(c(O)c1C2=O)C[C@@](O)(C(=O)CO)C[C@@H]3O[C@H]1C[C@H](N)[C@H](O)[C@H](C)O1 [Doxorubicin] + Cc1cc2ncnn2cc1Nc1ncc2c(n1)n(C1CCOCC1)c(=O)n2C [AZD7648] (first compound max 1 µM, 7x7, partner max 10 µM) equals 0.989

The recorded combination Emax for entry COc1cccc(OCCCN)c1-c1cc(Nc2cnc(C#N)cn2)n[nH]1 [Prexasertib] + CCc1c2c(nc3ccc(O)cc13)-c1cc3c(c(=O)n1C2)COC(=O)[C@]3(O)CC [SN-38] (first compound max 1 µM, 7x7, partner max 0.3 µM) equals 0.994

###

test system: KYSE-150 (Esophageal Squamous Cell Carcinoma); assay: Bliss excess, mean over the matrix (fraction); higher = more synergy
Measured Quantity: Bliss excess
# answer = number (no unit)

The recorded Bliss excess for entry Cc1c2c(nn1C)CSCc1cc(n(C)n1)CSc1cc(c3ccccc3c1)OCCCc1c(C(=O)O)n(C)c3c-2c(Cl)ccc13 [AZD5991] + C[C@@H]1COCCN1C2=NC(=NC(=C2)C3(CC3)[S@](=N)(=O)C)C4=C5C=CNC5=NC=C4 [AZD6738] (first compound max 1 µM, 7x7, partner max 10 µM) equals 0.0556

The recorded Bliss excess for entry Cc1cc2ncnn2cc1Nc1ncc2c(n1)n(C1CCOCC1)c(=O)n2C [AZD7648] + CN(C)CCCOc1ccc(-c2ccc3ncc4c(c3c2)n(C2CCOCC2)c(=O)n4C)cn1 [AZD0156] (first compound max 10 µM, 7x7, partner max 1 µM) equals 0.0054

The recorded Bliss excess for entry Cc1cc2ncnn2cc1Nc1ncc2c(n1)n(C1CCOCC1)c(=O)n2C [AZD7648] + O=C(c1cc(Cc2n[nH]c(=O)c3ccccc23)ccc1F)N1CCN(C(=O)C2CC2)CC1 [Olaparib] (first compound max 10 µM, 7x7, partner max 10 µM) equals -0.0351

The recorded Bliss excess for entry CC(=O)Nc1cccc(-n2c(=O)n(C3CC3)c(=O)c3c(Nc4ccc(I)cc4F)n(C)c(=O)c(C)c32)c1 [Trametinib] + Cc1nc(-c2cn3c(n2)-c2ccc(-c4cnn(C(C)(C)C(N)=O)c4)cc2OCC3)n(C(C)C)n1 [Taselisib] (first compound max 1 µM, 7x7, partner max 10 µM) equals 0.123

The recorded Bliss excess for entry CN(CCO)CC[C@H](CSc1ccccc1)Nc1ccc(S(=O)(=O)NC(=O)c2ccc(N3CCC([C@@H](O)c4ccccc4-c4ccc(Cl)cc4)CC3)cc2)cc1S(=O)(=O)C(F)(F)F [AZD4320] + C1CN(CCC1(C(=O)N[C@@H](CCO)C2=CC=C(C=C2)Cl)N)C3=NC=NC4=C3C=CN4 [Capivasertib] (first compound max 1 µM, 7x7, partner max 3 µM) equals -0.0579

The recorded Bliss excess for entry Cc1c2c(nn1C)CSCc1cc(n(C)n1)CSc1cc(c3ccccc3c1)OCCCc1c(C(=O)O)n(C)c3c-2c(Cl)ccc13 [AZD5991] + C=CCn1c(=O)c2cnc(Nc3ccc(N4CCN(C)CC4)cc3)nc2n1-c1cccc(C(C)(C)O)n1 [AZD1775] (first compound max 1 µM, partner max 1 µM) equals 0.0496

The recorded Bliss excess for entry Cc1c2c(nn1C)CSCc1cc(n(C)n1)CSc1cc(c3ccccc3c1)OCCCc1c(C(=O)O)n(C)c3c-2c(Cl)ccc13 [AZD5991] + Cn1cnc2c(F)c(Nc3ccc(Br)cc3Cl)c(C(=O)NOCCO)cc21 [Selumetinib] (first compound max 1 µM, 7x7, partner max 3 µM) equals 0.0402
